Data provenance is patent US20230242624A1.

Kindly supply the reported pEC50 values for the records listed here.
system.name: T1, MERS-CoV Spike protein fragment (RBD, aa 367-606, His tag) (MERS-CoV, UniProt K9N5Q8 367-606)
T1 sequence: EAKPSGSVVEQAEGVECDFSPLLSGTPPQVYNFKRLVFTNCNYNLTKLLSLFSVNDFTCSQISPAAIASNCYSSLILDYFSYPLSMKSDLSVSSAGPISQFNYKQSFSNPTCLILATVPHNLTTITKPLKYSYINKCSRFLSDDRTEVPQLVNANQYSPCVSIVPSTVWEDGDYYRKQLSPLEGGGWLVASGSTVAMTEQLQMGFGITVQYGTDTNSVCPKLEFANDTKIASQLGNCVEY
test.summary: iQue flow cytometry, antigen-coated beads
One number for each entry, as −log10 of the molar value.

Check out these entries, answers already filled in.
>>> value_reported("NI-607.532_F9 (antibody, V domains shown) VH: EVQLVESGGNLIQPGGSLRLSCAASGFTVSSNYMSWVRQAPGKGLEWVSVIYSGGSTYYADSVKGRFTISRDNSRNTLYLQMNSLRAEDTAVYFCARDRVVRGVRGNGMDVWGQGTTVTVSS VL: AIRMTQSPSSLSASVGDRVTITCQASQDINIYLNWYQQRPGKAPKLLIYDASNLETGVPSRFSGSGSGTDFTFTISSLQPEDIATYYCHQYDNLPRTFGQGTKVDIK")
6.00
>>> value_reported("NI-607.529_G4 (antibody, V domains shown) VH: QVQLQQWGAGLLKPSETLSLTCAVYGGSFSGYYWSWIRQPPGKGLEWIGEINHSGSTNYNPSLKSRVTISVDTSKNQFSLKLSSVTAADTAVYYCARASLYYSDSSGYSHPYYFDYWGQGTLVTVSS VL: QPVLTQPPSVSGAPGQRVTISCTGSSSNIGAGYDVHWYQQLPGTAPKLLIYGNSNRPSGVPDRFSGSKSGMSASLAITGLQAEDEADYYCQSYDSSLSGWVFGGGTKLTVL")
6.00
>>> value_reported("NI-607.791_B10 (antibody, V domains shown) VH: QVQLQQWGAGLLKPSETLSRTCAVYGGSFSDYYWSWIRQPPGKGLEWIGEVNHRGVTNYNPSLKSRVTISIDTSKSQFSLELRSVTDADTALYFCARSPFWTIAARPFDYWGRGTLVTVSS VL: EIVMTQSPGTLSLSPGERATLSCRASQSVISNYLAWYQQKPGQAPRFLIYAASTRARGIPDRFSGSGSGTDFTLTISRLEAEDFAVYYCQQYGNSPLTFGGGTKLEIK")
6.40

Hey, quick one: what's pEC50 for each of these?
1. NI-607.429_B9 (antibody, V domains shown) VH: EVQLVESGGGLVQPGGSLRLSCAASGFTFSSYWMSWVRQAPGKGLEWVANIKQDGSEKYYVDSVKGRFTISRDNAKNSLYLQMNSLRAEDTAVYYCASLFWRRGSFDPWGQGTLVTVSS VL: QSVLTQPHSVSESPGKTVTISCTRSTGSIASNYVQWYQQRPGSAPTTVIYEDNQRPSGVPDRFSGSIDSSSNSASLTISGLKTEDEADYYCQSYDTSSYWVFGGGTKLTVL
2. NI-607.532_F3 (antibody, V domains shown) VH: EVQLVQSGAEVKKPGESLKISCKGFGYIFSNDWIGWVRQKPGKGLEWMGIIYPGDSDTRYSPSFRGQVTISADKSVSTAYLQWDSLKASDTAVYYCTRPRYTTMIVGSNPFDVWGQGTTVTVSS VL: QSVLTQPPSVSGAPGQRVTISCTGSSSNIGGGYDVHWYQKLPGTAPKLLIFDNDNRPSGVPDRFSGSKSDTSASLTITGLQAEDEADYFCQSYDSSLSGSGVVFGGGTKLTVL

1. 6.22
2. 6.00
